Kindly supply the reported Kb values for the records listed here.
system: rabbit aortic rings; assay: Assay B: In vitro vascular smooth muscle response for AII (antagonist activity, pA2); assay type: cell-based; conditions: Oryctolagus cuniculus, two values in a cell = two determinations
Field format: number, assumed nM, no unit text.

[Q] Can you share its Kb? I mean this compound: CCCCc1nc(Cc2ccc(-c3ccccc3-c3nnn[nH]3)cc2)n(CCCC)n1
[A] 501

[Q] // next record CCCCn1nc(C(F)CCC)nc1Cc1ccc(-c2ccccc2-c2nnn[nH]2)nc1 (stereo not shown)
[A] 70.8

[Q] // next record CCCn1nc(C(C)(F)F)nc1Cc1ccc(-c2ccccc2-c2nnn[nH]2)nc1
[A] 20.4

[Q] // next record CCCCc1nn(Cc2ccc3ccccc3c2)c(=O)n1Cc1ccc(-c2ccccc2-c2nn[nH]n2)cc1
[A] 398

[Q] // next record COC(=O)CC[C@]1(O)CC[C@H]2[C@@H]3C4CC4C4=CC(=O)CC[C@]4(C)[C@]34OC4C[C@@]21C (stereo partly shown)
[A] 9.77

[Q] // next record CCCCc1cn([C@H]2[C@H](C)CCC[C@@H]2C)c(=O)n1Cc1ccc(-c2ccccc2-c2nnn[nH]2)nc1
[A] 5.5

[Q] // next record CCCCc1nc(-c2ccccc2OC)n(Cc2ccc(-c3ccccc3-c3nnn[nH]3)nc2)n1
[A] 288

[Q] // next record CCCCn1nc(C(=O)NC(C)(C)C)nc1Cc1ccc(-c2ccccc2-c2nnn[nH]2)nc1
[A] 166

[Q] // next record CCCCCc1nc(CCCCC)n(Cc2ccc(-c3ccccc3-c3nnn[nH]3)cc2)n1
[A] 27.5

[Q] // next record CCCCc1nn(C(=O)CCC)c(=O)n1Cc1ccc(-c2ccccc2-c2nn[nH]n2)cc1
[A] 20

[Q] // next record CCCCc1nc(CC2CCCCC2)n(Cc2ccc(-c3ccccc3-c3nnn[nH]3)cc2)n1
[A] 79.4

[Q] // next record CCCCc1cn(-c2c(C)cccc2C)c(=O)n1Cc1ccc(-c2ccccc2-c2nnn[nH]2)nc1
[A] 3.09

[Q] // next record CCCCc1nc(Cl)nn1Cc1ccc(-c2ccccc2-c2nnn[nH]2)cc1
[A] 724

[Q] // next record CCCCc1nc(CCCN)nn1Cc1ccc(-c2ccccc2-c2nnn[nH]2)cc1
[A] 5.01

[Q] // next record CCCCc1cn(CCc2cccs2)c(=O)n1Cc1ccc(-c2ccccc2-c2nnn[nH]2)cc1
[A] 200

[Q] // next record CCCn1nc(C(OC)OC)nc1Cc1ccc(-c2ccccc2-c2nnn[nH]2)nc1
[A] 1.51

[Q] // next record CCCCc1ncn(Cc2ccc(-c3ccccc3C(=O)O)cc2)n1
[A] 18.6

[Q] // next record CCCCc1cn(CCCC)c(=O)n1Cc1ccc(-c2ccccc2-c2nnn[nH]2)cc1
[A] 20

[Q] // next record CCCCc1nc(CCC)nn1Cc1ccc(-c2ccccc2-c2nnn[nH]2)cc1
[A] 158

[Q] // next record CCCCc1nc(CCc2ccccc2)nn1Cc1ccc(-c2ccccc2-c2nnn[nH]2)cc1
[A] 126

[Q] // next record CCCCc1nn(CCCCC(=O)O)c(=O)n1Cc1ccc(-c2ccccc2-c2nn[nH]n2)cc1
[A] 398

[Q] // next record CCCCc1nc(CC23CC4CC(CC(C4)C2)C3)nn1Cc1ccc(-c2ccccc2-c2nnn[nH]2)cc1
[A] 22.4

[Q] // next record CCCCc1cn(-c2ccccc2Cl)c(=O)n1Cc1ccc(-c2ccccc2-c2nnn[nH]2)cc1
[A] 398

[Q] // next record CCCCc1nn(CC(O)c2cc(OC)ccc2OC)c(=O)n1Cc1ccc(-c2ccccc2-c2nn[nH]n2)cc1 (stereo not shown)
[A] 50.1

[Q] // next record CCCCc1nn(CCCC)c(=O)n1Cc1ccc(-c2ccccc2-c2nnn[nH]2)cc1
[A] 1

[Q] // next record CCCCc1nn(Cc2cccc3ccccc23)c(=O)n1Cc1ccc(-c2ccccc2-c2nn[nH]n2)cc1
[A] 316

[Q] // next record CCCCc1nc(CCC2CCCCC2)nn1Cc1ccc(-c2ccccc2-c2nnn[nH]2)cc1
[A] 955

[Q] // next record CCCCc1nc(CCCNC(=O)OC(C)(C)C)nn1Cc1ccc(-c2ccccc2-c2nnn[nH]2)cc1
[A] 0.631

[Q] // next record CCCCc1nc(CNC(=O)CCC(NC(C)=O)C(=O)OC(C)(C)C)nn1Cc1ccc(-c2ccccc2-c2nnn[nH]2)cc1 (stereo not shown)
[A] 7.24

[Q] // next record CCCCc1nn(C(C)(C)C(=O)c2ccccc2)c(=O)n1Cc1ccc(-c2ccccc2-c2nn[nH]n2)cc1
[A] 3.98

[Q] // next record CCCCc1nc(-c2c(F)cccc2F)nn1Cc1ccc(-c2ccccc2-c2nnn[nH]2)nc1
[A] 389
